# System: Citrobacter freundii
# experiment_notes: MIC in vitro of a 1:4 combination of ceftriaxone with a compound of formula I (test D)
# Format: cell-based
# measurement_parameters: 1:4 combination of ceftriaxone with the compound
Where a name gives a salt, the structure may show the parent alone.
outcome_measure: MIC (µg/mL)
Please give a number only; it is taken to be in µg/mL.

Please review the entries below; each comes with its answer.
molecule | measure_unit | MIC
COc1ccc(NC(=O)N2CC[C@@H]3[C@H]2C(=O)N3S(=O)(=O)[O-])cc1.[Na+] | µg/mL | 4
O=C(O)C(C(=O)N1CC[C@@H]2[C@H]1C(=O)N2S(=O)(=O)O)c1ccsc1 (mixture of isomers) [6(e)] | µg/mL | 4
O=C(OCc1ccccc1)N1CC[C@@H]2[C@H]1C(=O)N2S(=O)(=O)O [Example 1(a), sodium salt] | µg/mL | 8

Consider now this further molecule.
State recorded MIC with Citrobacter freundii, entry Cc1nnc(SCC(=O)N2CC[C@@H]3[C@H]2C(=O)N3S(=O)(=O)[O-])s1.[Na+] , no comment.
0.5

====

# target_desc: β-lactamase (Citrobacter freundii)
# Construct: Various β-lactamases can be isolated from penicillin- or cephalosporin-resistant bacterial strains such as; endogenous in cells; host or cells: Citrobacter freundii 1203 (enzyme purified from the crude cell extract, after ampicillin induction when necessary)
# experiment_notes: biochemical
# Procedure: A. Isolation of the β-lactamases […] The determination of the activity of the isolated β-lactamases can be carried out according to the method of O'Callaghan, C. […] The cleavage of the substrate, which is accompanied by a change in colour, is effected at 37° C. and is followed quantitatively at 482 nm using a spectral photometer. […]
Where a name gives a salt, the structure may show the parent alone.
Attribute: pIC50
pIC50 here is simply -log10 of the concentration when that concentration is written in mol/L.

molecule | data_value
O=C(NCC(=O)N1CC[C@@H]2[C@H]1C(=O)N2S(=O)(=O)O)OCc1ccccc1 [4(g)] | 6.41
O=C(CSc1nnnn1-c1ccccc1)N1CC[C@@H]2[C@H]1C(=O)N2S(=O)(=O)O [5(q), sodium salt] | 8.30
N[C@@H](Cc1c[nH]c2ccccc12)C(=O)N1CC[C@@H]2[C@H]1C(=O)N2S(=O)(=O)O [6(h)] | 8.22
O=C(NCc1ccco1)N1CC[C@@H]2[C@H]1C(=O)N2S(=O)(=O)O [Example 17(a), sodium salt] | 6.81
NC(C(=O)N1CC[C@@H]2[C@H]1C(=O)N2S(=O)(=O)O)c1cccc(O)c1 (mixture of isomers) [6(q)] | 6.43

Please report pIC50 for the following molecule: N[C@@H](C(=O)N1CC[C@@H]2[C@H]1C(=O)N2S(=O)(=O)O)c1cccc(O)c1 [6(p)]
7.25

// fetch pIC50 given entry Nc1ccc(/C=C/C(=O)N2CC[C@@H]3[C@H]2C(=O)N3S(=O)(=O)O)cc1 [12(a)]
6.98

Note down pIC50 recorded for O=C1SCC[C@H]1NC(=O)N1CC[C@@H]2[C@H]1C(=O)N2S(=O)(=O)O [17(u), sodium salt]
7.21

====

Catalogue of IC50 values
# target_desc: β-lactamase (Citrobacter freundii, UniProt P05193)
# Construct: Various β-lactamases can be isolated from penicillin- or cephalosporin-resistant bacterial strains such as; endogenous in cells; host or cells: Citrobacter freundii 1203 (enzyme purified from the crude cell extract, after ampicillin induction when necessary)
# Sequence (P05193 21-381): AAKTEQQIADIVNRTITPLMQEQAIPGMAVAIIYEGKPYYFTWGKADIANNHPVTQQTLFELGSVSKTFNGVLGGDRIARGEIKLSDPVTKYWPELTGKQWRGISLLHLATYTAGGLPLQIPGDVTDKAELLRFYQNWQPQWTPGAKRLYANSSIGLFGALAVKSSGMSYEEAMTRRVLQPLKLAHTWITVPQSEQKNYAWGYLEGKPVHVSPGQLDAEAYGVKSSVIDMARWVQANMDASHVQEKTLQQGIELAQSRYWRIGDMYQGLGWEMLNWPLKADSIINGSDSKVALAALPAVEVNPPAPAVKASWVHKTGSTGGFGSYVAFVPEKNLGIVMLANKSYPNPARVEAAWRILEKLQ
# experiment_notes: biochemical
# measurement_parameters: IC 50 nM, isolated β-lactamase of Citrobacter freundii; substrate nitrocefin 0.1 mM; 15 minutes pre-incubation with inhibitor; 37° C., pH 7.0
Where a name gives a salt, the structure may show the parent alone.
# unit: nM | format: bare number

Look over these answered cases.
compound | target_desc | outcome_measure | data_value
O=C1C[C@H](NC(=O)N2CC[C@@H]3[C@H]2C(=O)N3S(=O)(=O)[O-])C(=O)N1.[Na+] [17(ag), sodium salt] | β-lactamase (Citrobacter freundii, UniProt P05193) | IC50 | 337
O=C(CS(=O)(=O)c1ccc(O)c(O)c1)N1CC[C@@H]2[C@H]1C(=O)N2S(=O)(=O)O [Example 20, sodium salt] | β-lactamase (Citrobacter freundii, UniProt P05193) | IC50 | 165
O=C(Nc1ccc(O)cc1)N1CC[C@@H]2[C@H]1C(=O)N2S(=O)(=O)O [17(w), sodium salt] | β-lactamase (Citrobacter freundii, UniProt P05193) | IC50 | 109
O=C(NNc1ccccc1)N1CC[C@@H]2[C@H]1C(=O)N2S(=O)(=O)O [17(d), sodium salt] | β-lactamase (Citrobacter freundii, UniProt P05193) | IC50 | 197
O=C(OCc1ccccc1)N1C[C@@H](Cl)[C@@H]2[C@H]1C(=O)N2S(=O)(=O)O [16(b), sodium salt] | β-lactamase (Citrobacter freundii, UniProt P05193) | IC50 | 334

Answer with reported IC50 of O=C(C=Cc1cncn1S(=O)(=O)[O-])N1CC[C@@H]2[C@H]1C(=O)N2S(=O)(=O)[O-].[Na+].[Na+] [23(l), sodium salt]
5

Quote IC50 reported for COC(=O)/C=C1\CN(C(=O)OCc2ccccc2)[C@@H]2C(=O)N(S(=O)(=O)O)[C@H]12 [14(a), sodium salt] please.
32
